Protocol Text: 35°C color optical density (A35): absorbancy difference ε(240)-ε(0) after 240 s light irradiation at 35°C
Format: physicochemical
Run Parameters: photochromic laminate by coating method, 240 s irradiation
The entries below come with measured A35 (-) values attached.

COc1ccc(C2(c3ccc(OC)cc3)C=Cc3c4c(c5cc(N(C)c6ccccc6)c(OC)cc5c3O2)-c2ccccc2C4(C)C)cc1 [Example 1 Formula (28)] ... 0.79 -
CCCOc1ccc(C2(c3ccc(OCCC)cc3)C=Cc3c4c(c5cc(N(CCOC)c6ccccc6)c(OC)cc5c3O2)-c2ccccc2C42CCCCCCC2)cc1 [Example 6 Formula (47)] ... 0.95 -

Reported A35 (-) for COc1ccc(C2(c3ccc(OC)cc3)C=Cc3c4c(c5cc(N(c6ccccc6)c6ccccc6)c(OC)cc5c3O2)-c2ccccc2C4(C)C)cc1 [Example 2 Formula (30)] was 1.05 -

Hey, just so you know, these numbers are from patent EP4692071A1.
